Target: Solute carrier family 2, facilitated glucose transporter member 1 (Homo sapiens) (UniProt P11166)
Sequence (P11166 whole entry): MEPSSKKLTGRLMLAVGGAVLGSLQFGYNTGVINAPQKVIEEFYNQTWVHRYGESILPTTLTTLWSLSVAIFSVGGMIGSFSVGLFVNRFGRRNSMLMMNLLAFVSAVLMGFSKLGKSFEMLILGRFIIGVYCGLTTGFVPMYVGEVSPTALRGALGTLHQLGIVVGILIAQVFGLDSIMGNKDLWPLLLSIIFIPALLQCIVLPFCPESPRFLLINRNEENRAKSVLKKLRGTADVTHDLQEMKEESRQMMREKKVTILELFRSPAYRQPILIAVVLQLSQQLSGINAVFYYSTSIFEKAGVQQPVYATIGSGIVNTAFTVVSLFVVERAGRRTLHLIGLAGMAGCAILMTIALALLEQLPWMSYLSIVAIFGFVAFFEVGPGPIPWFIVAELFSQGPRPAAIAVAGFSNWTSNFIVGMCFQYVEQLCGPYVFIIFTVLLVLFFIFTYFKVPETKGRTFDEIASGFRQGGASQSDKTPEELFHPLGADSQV
Test: ST_JUDE_LEISH: Cytotoxicity at 2uM final concentration against transgenic Leishmania Mexicana promastigotes LmGLUT1 that are glucose transport deficient and complemented with the human glucose transporter GLUT1. Activity is measured by DNA content using SYBR green in vitro
Assay type: functional
Observable: inhibition (%)
Express your answer in %, writing the number without its unit.

Before answering, review these 5 worked examples.
compound=CCNc1nc(OCC(F)(F)F)nc(N(c2ccccc2)c2ccccc2)n1 observable=inhibition output_unit=% experimental_result=0.4
compound=CC[C@]1(C)C[C@@H](NC(=O)NC(=O)c2ccc(OC)cc2)[C@]2(C)[C@H](C)CC[C@]3(CCC(=O)[C@H]32)[C@@H](C)[C@@H]1OC(=O)NC(=O)c1ccc(OC)cc1 observable=inhibition output_unit=% experimental_result=7.7
compound=COc1ccc(Nc2nc(N/N=C/c3cc(Br)ccc3O)nc(Nc3ccc([N+](=O)[O-])cc3)n2)cc1 observable=inhibition output_unit=% experimental_result=0.02
compound=CCC[C@@H]([C@@H](CC1CCCCC1)C(=O)N[C@@H](CCOC(=O)NCC)C(=O)Nc1nccs1)N(O)C=O observable=inhibition output_unit=% experimental_result=8.61
compound=Cc1[nH]cnc1CSCCN/C(=N\C#N)NCCCCCCCCN/C(=N/C#N)NCCSCc1nc[nH]c1C observable=inhibition output_unit=% experimental_result=2.45

(Q) Using known records, supply inhibition for `COc1ccc(OC)c(C=NNc2nc3ccccc3[nH]2)c1`
(A) 5.98

(Q) Using known records, supply inhibition for Cc1ccccc1C1CCN(C2CCC(NC(=O)c3ccc(-c4cccs4)s3)CC2)CC1 (centres undefined)
(A) 2.14

(Q) Using known records, supply inhibition for `CCOc1ccccc1CNc1nccc(NCc2ccc(Cl)cc2Cl)n1`
(A) 31.3

(Q) Using known records, supply inhibition for Nc1c(Cl)cc(C(O)CNCCCCCOCCc2ccc3occc3c2)cc1Cl (centres undefined)
(A) 3.53

(Q) Using known records, supply inhibition for `O=C(Nc1ccc2c(c1)OCO2)c1cc(-c2cccnc2)cnc1NCc1ccc2c(c1)OCO2`
(A) 0.99

(Q) Using known records, supply inhibition for `COc1cc2nc(NCCN3CCOCC3)n3nc(-c4ccccc4)nc3c2cc1OC`
(A) 8.12

(Q) Using known records, supply inhibition for `Cc1[nH]c2ccccc2c(=O)c1Br`
(A) 5.04

(Q) Using known records, supply inhibition for `Nc1ncnc2occ(-c3ccc(NC(=O)Nc4cc(C(F)(F)F)ccc4F)cc3)c12`
(A) 0.61

(Q) Using known records, supply inhibition for `FC(F)(F)c1ccc2[nH]c(-c3ccc(-c4ccc(CNCc5ccccc5)cc4)cc3)nc2c1`
(A) 8.83
